# System: P388 leukemia ip, CD2F1 mice, survival T/C
# Procedure Details: NCI In Vivo Anticancer Drug Screen. Data for tumor model P388 Leukemia (intraperitoneal) in CD2F1 (CDF1) mice
# Test Context: endpoint: median survival time; dose: 100.0 mg/kg/injection; schedule: Q01DX005 (ip); vehicle: saline with Tween-80; higher = longer survival
Inconclusive results and toxic doses are left out.
Measurement Name: T/C

These recorded examples may help you get a feel for the data.
• O=C1Nc2c(Cl)cc(Cl)cc2/C1=N/N=C/c1ccco1 = 104 % of control
• O=P1(Nc2ccc(Cl)cc2)N(Cc2ccc(Cl)cc2)CCCN1Cc1ccc(Cl)cc1 = 92 % of control
• CO/C=C(/C#N)S(=O)(=O)/C(C#N)=C/OC = 112 % of control
• C=CCC12CC(COc3ccccc3C(N)=O)OC1=Nc1ccccc1NC2=O (stereo unspecified) = 100 % of control
• CCOC(=O)N1c2ccccc2OC1C#N (stereo unspecified) = 107 % of control

// returns reported T/C for input `COC(=O)Nc1nc2ccc(-c3c(C)oc(C)c3C(=O)O)cc2[nH]1`
97 % of control

// returns reported T/C for input `CC(C)CN=C1NS(=O)(=O)c2ccccc21`
101 % of control

---

# Tested on: P388 leukemia ip, CD2F1 mice, survival T/C
# Procedure Details: NCI In Vivo Anticancer Drug Screen. Data for tumor model P388 Leukemia (intraperitoneal) in CD2F1 (CDF1) mice
# Test Context: endpoint: median survival time; dose: 12.5 mg/kg/injection; schedule: Q01DX009 (ip); vehicle: saline; higher = longer survival
Toxic doses and inconclusive results are not listed.
Known T/C of a selection of compounds

- CC1CC(c2ccc3ccccc3c2)NCCNC(c2ccc3ccccc3c2)CC(C)NCCN1 (stereo not given): 101 % of control

Enter reported T/C observed with P388 leukemia ip, CD2F1 mice, survival T/C for CCC(=O)NC(Cc1ccccc1F)C(=O)O (stereo not given)
101 % of control

Enter reported T/C observed with P388 leukemia ip, CD2F1 mice, survival T/C for `CN(C)CCC[N+](C)(C)Cc1ccc(C[N+](C)(C)CCC[N+](C)(C)Cc2ccc(CCl)cc2)cc1`
106 % of control

Enter reported T/C observed with P388 leukemia ip, CD2F1 mice, survival T/C for `O=[N+]([O-])c1cccc2c[n+](Cc3ccc(Br)cc3)ccc12`
117 % of control

---

# Test system: P388 leukemia ip, CD2F1 mice, survival T/C
# Procedure Details: NCI In Vivo Anticancer Drug Screen. Data for tumor model P388 Leukemia (intraperitoneal) in CD2F1 (CDF1) mice
# Test Context: endpoint: median survival time; dose: 12.5 mg/kg/injection; schedule: Q01DX009 (ip); vehicle: water; higher = longer survival
Toxic doses and inconclusive results are not listed.
Known T/C of a selection of compounds

// returns reported T/C for input `Cc1c[n+]([O-])ccc1Br`
90 % of control

// returns reported T/C for input `COc1ccc(CCNCCc2ccc(OC)c(OC)c2)cc1OC`
108 % of control

// returns reported T/C for input `NCCCn1ccc2c3ccccc3nc-2c1`
105 % of control

// returns reported T/C for input COCC(CC(=O)O)C(C(=O)O)C(=O)O (stereo not given)
100 % of control

// returns reported T/C for input `Cc1cc(NN=O)nc(C)n1`
98 % of control
